Tested on: ED cells (E. derm NBM-6, ATCC CCL-57)
protocol.text: cell viability (ATP, CellTiter-Glo) relative to untreated control (fraction of control); higher = less cytotoxic
condition.set: 100 µM; incubation time: 24h

| chemical.string | cell viability |
| --- | --- |
| CCC[C@@]1(CCc2ccccc2)CC(O)=C([C@H](CC)c2cccc(NS(=O)(=O)c3ccc(C(F)(F)F)cn3)c2)C(=O)O1 | 0.718 |
| Nc1nc(=O)n([C@@H]2CS[C@H](CO)O2)cc1F | 1.03 |
| Cc1cn([C@H]2C[C@H](N=[N+]=[N-])[C@@H](CO)O2)c(=O)[nH]c1=O | 0.98 |
| COC(=O)N[C@H](C(=O)N[C@@H](Cc1ccccc1)[C@@H](O)CN(Cc1ccc(-c2ccccn2)cc1)NC(=O)[C@@H](NC(=O)OC)C(C)(C)C)C(C)(C)C | 0.941 |
